IC50: recorded values
Molecular target: Human recombinant USP1/UAF1 (Homo sapiens)
Experiment: Enzymatic assay, USP1/UAF1 with Ubiquitin Rhodamine 110
Details: 2 nM USP1/UAF1, 500 nM Ubiquitin Rhodamine 110, HEPES buffer pH 8.0, 15 minutes preincubation at RT
Value kind: IC50

Compound: COc1ncnc(C2CC2)c1-c1ncc2cnn(CC34C5C6C3C3C4C5C63c3nc(C(F)(F)F)cn3C)c2n1 (centres unmarked)
Test target: Human recombinant USP1/UAF1 (Homo sapiens)
Measured value: < 50 nM
--
Compound: COc1ncnc(C2CC2)c1-c1ncc2cnn(CC34C5C6C3C3C4C5C63c3nc(C(F)(F)F)cn3C(C)C)c2n1 (centres unmarked)
Test target: Human recombinant USP1/UAF1 (Homo sapiens)
Measured value: < 50 nM
--
Compound: COc1ncnc(C2CC2)c1-c1cnc2cnc(Cc3ccc(-n4nc(C(F)(F)F)cc4C)cc3)n2c1
Test target: Human recombinant USP1/UAF1 (Homo sapiens)
Measured value: > 10000 nM
--
Compound: COc1ncnc(C2CC2)c1-c1cn2c(Cc3ccc(-n4nc(C(F)(F)F)cc4C)cc3)nnc2cn1
Test target: Human recombinant USP1/UAF1 (Homo sapiens)
Measured value: 1000 to 10000 nM
--
Compound: COc1ncnc(C2CC2)c1-c1cn2c(Cc3ccc(-n4nc(C(F)(F)F)cc4C)cc3)ncc2cn1
Test target: Human recombinant USP1/UAF1 (Homo sapiens)
Measured value: 50 to 1000 nM

====

Entries and their IC50
Target: Human recombinant USP1/UAF1 (Homo sapiens, UniProt O94782)
Sequence (O94782 whole entry): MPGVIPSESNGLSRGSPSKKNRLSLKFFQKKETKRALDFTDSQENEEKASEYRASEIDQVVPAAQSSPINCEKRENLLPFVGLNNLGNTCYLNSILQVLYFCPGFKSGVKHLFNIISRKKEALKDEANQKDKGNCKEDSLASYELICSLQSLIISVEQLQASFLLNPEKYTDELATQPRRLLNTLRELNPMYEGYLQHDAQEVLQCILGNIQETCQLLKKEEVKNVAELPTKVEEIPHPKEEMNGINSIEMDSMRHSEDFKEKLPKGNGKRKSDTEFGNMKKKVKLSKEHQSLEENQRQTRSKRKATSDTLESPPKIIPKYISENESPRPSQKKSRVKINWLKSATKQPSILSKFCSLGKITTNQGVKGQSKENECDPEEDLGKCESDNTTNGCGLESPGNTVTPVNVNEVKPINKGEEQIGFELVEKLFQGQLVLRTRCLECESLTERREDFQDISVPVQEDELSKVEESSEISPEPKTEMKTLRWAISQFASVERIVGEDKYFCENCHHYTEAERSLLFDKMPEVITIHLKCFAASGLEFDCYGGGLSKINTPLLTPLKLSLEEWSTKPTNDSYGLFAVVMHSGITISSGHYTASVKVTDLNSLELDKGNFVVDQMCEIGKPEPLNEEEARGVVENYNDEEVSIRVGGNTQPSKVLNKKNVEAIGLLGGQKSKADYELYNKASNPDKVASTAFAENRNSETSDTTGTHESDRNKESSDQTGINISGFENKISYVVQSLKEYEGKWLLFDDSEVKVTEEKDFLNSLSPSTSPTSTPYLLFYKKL
Sequence (Q8TAF3 whole entry partner): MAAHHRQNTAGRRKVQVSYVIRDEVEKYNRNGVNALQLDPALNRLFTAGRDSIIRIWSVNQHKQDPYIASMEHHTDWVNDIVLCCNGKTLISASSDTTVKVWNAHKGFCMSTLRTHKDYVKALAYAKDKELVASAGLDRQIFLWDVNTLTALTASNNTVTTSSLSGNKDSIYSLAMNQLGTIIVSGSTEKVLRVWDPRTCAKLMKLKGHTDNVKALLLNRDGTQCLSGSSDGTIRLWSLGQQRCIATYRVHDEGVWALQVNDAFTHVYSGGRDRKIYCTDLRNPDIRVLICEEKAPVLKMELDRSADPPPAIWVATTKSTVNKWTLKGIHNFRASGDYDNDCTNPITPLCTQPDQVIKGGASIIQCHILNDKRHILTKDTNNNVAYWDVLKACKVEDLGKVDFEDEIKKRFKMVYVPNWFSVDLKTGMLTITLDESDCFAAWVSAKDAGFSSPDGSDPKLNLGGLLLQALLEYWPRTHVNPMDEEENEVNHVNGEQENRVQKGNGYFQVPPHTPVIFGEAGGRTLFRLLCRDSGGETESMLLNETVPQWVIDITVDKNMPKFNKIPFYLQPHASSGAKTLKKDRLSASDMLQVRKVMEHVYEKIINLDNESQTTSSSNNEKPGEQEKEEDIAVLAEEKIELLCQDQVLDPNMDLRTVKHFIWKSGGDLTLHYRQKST
Experiment: Enzymatic assay, USP1/UAF1 with Ubiquitin Rhodamine 110
Settings: 2 nM USP1/UAF1, 500 nM Ubiquitin Rhodamine 110, HEPES buffer pH 8.0, 15 minutes preincubation at RT

Chemical string: COc1ncnc(C2CC2)c1-c1cc2c(cn1)cnn2Cc1ccc(-n2nc(C(F)(F)F)cc2C)nc1
IC50: 0.05 to 1 µM
--
Chemical string: COc1ncnc(C2CC2)c1-c1cc2c(cn1)cnn2Cc1ccc(-n2nc(C(F)(F)F)cc2C)cc1
IC50: < 0.05 µM
--
Chemical string: COc1ncnc(C2CC2)c1-c1cc2c(cnn2Cc2ccc(-n3nc(C(F)(F)F)cc3C)cc2)nn1
IC50: 1 to 10 µM
--
Chemical string: COc1ncnc(C2CC2)c1-c1ncc2oc(=O)n(Cc3ccc(-n4nc(C(F)(F)F)cc4C)cc3)c2n1
IC50: 0.05 to 1 µM
--
Chemical string: COc1ncnc(C2CC2)c1-c1ncc2c(=O)n(C)n(Cc3ccc(-n4nc(C(F)(F)F)cc4C)cc3)c2n1
IC50: 0.05 to 1 µM
--
Chemical string: COc1ncnc(C2CC2)c1-c1ncc2[nH]c(=S)n(Cc3ccc(-n4nc(C(F)(F)F)cc4C)cc3)c2n1
IC50: 0.05 to 1 µM
--
Chemical string: COc1ncnc(C2CC2)c1-c1cnc2cnn(Cc3ccc(-n4nc(C(F)(F)F)cc4C)cc3)c2n1
IC50: 1 to 10 µM
